Every entry's value here was drawn from patent US10196425B2.

EXPERIMENTAL TARGET: MC1R (Homo sapiens)
METHOD: cAMP assay (β-galactosidase reporter, cAMP Hunter), MC1R
Type: cell-based
CONDITION DETAILS: agonist cAMP stimulation; read-out: cAMP Assay (EC-50) MC1R
Bridge positions count the residues as written; N and C are the ends. Square brackets hold non-standard residues; d marks the D form. Peptide text beside a SMILES is read from it. hCys = N[C@@H](CCS)C(=O)O
Decision: EC50 beneath 70 nM gives YES; EC50 meeting or exceeding 70 nM gives NO.

EC50 strictly < 70 nM for this compound? CC(=O)N[C@@H](CCCNC(=N)N)C(=O)N[C@H]1CCSSC[C@@H](C(N)=O)NC(=O)[C@H](Cc2c[nH]c3ccccc23)NC(=O)[C@H](CCCNC(=N)N)NC(=O)[C@@H](Cc2ccccc2)NC(=O)[C@H](C)NC1=O [Compound 15] (Ac-R[hCys]A[dF]RWC-NH2; disulfide 2-7) YES

EC50 strictly < 70 nM for this compound? CC(=O)N[C@@H](CCCNC(=N)N)C(=O)N[C@H]1CSSC[C@@H](C(N)=O)NC(=O)[C@H](Cc2c[nH]c3ccccc23)NC(=O)[C@H](CCCNC(=N)N)NC(=O)[C@@H](Cc2ccccc2)NC(=O)[C@H](Cc2c[nH]cn2)NC(=O)[C@@H](C(C)(C)C)NC1=O [Compound 3] YES

EC50 strictly < 70 nM for this compound? CC(=O)N[C@@H](CCCNC(=N)N)C(=O)N[C@H]1CSSC[C@@H](C(N)=O)NC(=O)[C@H](Cc2c[nH]c3ccccc23)NC(=O)[C@H](CCCNC(=N)N)NC(=O)[C@@H](Cc2ccccc2)NC(=O)[C@H](CC(N)=O)NC(=O)[C@@H](C)NC1=O [Compound 9] (Ac-RC[dA]N[dF]RWC-NH2; disulfide 2-8) NO

EC50 strictly < 70 nM for this compound? CC(=O)N[C@@H](CCCNC(=N)N)C(=O)N[C@H]1CSSC[C@@H](C(N)=O)NC(=O)[C@H](Cc2c[nH]c3ccccc23)NC(=O)[C@H](CCCNC(=N)N)NC(=O)[C@@H](Cc2ccccc2)NC(=O)[C@H](Cc2c[nH]cn2)NC(=O)[C@@H](CC(C)C)NC1=O [Compound 1] YES

EC50 strictly < 70 nM for this compound? CC[C@@H](C)[C@H]1NC(=O)[C@@H](NC(=O)[C@H](CCCNC(=N)N)NC(C)=O)CSSC[C@@H](C(N)=O)NC(=O)[C@H](Cc2c[nH]c3ccccc23)NC(=O)[C@H](CCCNC(=N)N)NC(=O)[C@@H](Cc2ccccc2)NC(=O)[C@H](Cc2c[nH]cn2)NC1=O [Compound 2] YES

EC50 strictly < 70 nM for this compound? CC(=O)N[C@@H](CCCNC(=N)N)C(=O)N[C@H]1CSSC[C@@H](C(N)=O)NC(=O)[C@H](Cc2c[nH]c3ccccc23)NC(=O)[C@H](CCCNC(=N)N)NC(=O)[C@@H](Cc2ccccc2)NC(=O)[C@@H]2CCCN2C(=O)[C@@H](C)NC1=O [Compound 13] (Ac-RC[dA]P[dF]RWC-NH2; disulfide 2-8) NO

---

EXPERIMENTAL TARGET: UniProt:P33032
METHOD: cAMP assay (β-galactosidase reporter, cAMP Hunter), MC5R
Type: cell-based
CONDITION DETAILS: EC50(MC5R)/EC50(MC4R)
Bridge positions count the residues as written; N and C are the ends. Square brackets hold non-standard residues; d marks the D form. Peptide text beside a SMILES is read from it.
READOUT TYPE: Ratios of EC50 values MC 5/4
Number only, no unit.

Give the reported value of Ratios of EC50 values MC 5/4 for this record: CC(=O)N[C@@H](CCCNC(=N)N)C(=O)N[C@H]1CSSC[C@@H](C(N)=O)NC(=O)[C@H](Cc2c[nH]c3ccccc23)NC(=O)[C@H](CCCNC(=N)N)NC(=O)[C@@H](Cc2ccccc2)NC(=O)[C@H](CC(N)=O)NC(=O)[C@@H](C)NC1=O [Compound 9] (Ac-RC[dA]N[dF]RWC-NH2; disulfide 2-8) 530

---

EXPERIMENTAL TARGET: MC1R (Homo sapiens, UniProt Q01726)
Sequence (Q01726 whole entry): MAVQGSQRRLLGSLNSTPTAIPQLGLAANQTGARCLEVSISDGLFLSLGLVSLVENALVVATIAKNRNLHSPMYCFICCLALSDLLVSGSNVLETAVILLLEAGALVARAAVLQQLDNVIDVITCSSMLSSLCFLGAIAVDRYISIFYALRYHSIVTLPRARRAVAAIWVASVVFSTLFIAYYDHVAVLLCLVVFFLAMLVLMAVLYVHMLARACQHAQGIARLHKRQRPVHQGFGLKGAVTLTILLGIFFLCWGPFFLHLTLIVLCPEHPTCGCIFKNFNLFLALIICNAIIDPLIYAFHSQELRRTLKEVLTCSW
METHOD: cAMP assay (β-galactosidase reporter, cAMP Hunter), MC1R
Format: cell-based
CONDITION DETAILS: agonist cAMP stimulation; read-out: cAMP Assay (EC-50) MC1R
Excerpt: cAMP Accumulation Measurement Via a β-Galactosidase (β-Gal) Reporter System A chemiluminescence readout system that uses an enzyme fragment complementation (EFC) system with β-galactosidase (β-Gal) as the functional reporter system was used. This assay system for various melanocortin receptor systems is commercially available (cAMP Hunter GPCR assay system, Discoverx Corp, Fremont, Calif.). […]
Bridge positions count the residues as written; N and C are the ends. Square brackets hold non-standard residues; d marks the D form. Peptide text beside a SMILES is read from it. dPhe(4-F) = N[C@H](Cc1ccc(F)cc1)C(=O)O; Pen = CC(C)(S)[C@H](N)C(=O)O; hCys = N[C@@H](CCS)C(=O)O
Would you kindly list log10 EC50 for each of these compounds?
Values reflect log10 of reported EC50 (µM).

Give the reported value of log10 EC50 for this record: CC(=O)N[C@@H](CCCNC(=N)N)C(=O)N[C@H]1CCSSC[C@@H](C(N)=O)NC(=O)[C@H](Cc2c[nH]c3ccccc23)NC(=O)[C@H](CCCNC(=N)N)NC(=O)[C@@H](Cc2ccccc2)NC(=O)[C@@H](C)NC1=O [Compound 16] (Ac-R[hCys][dA][dF]RWC-NH2; disulfide 2-7) -0.05

Give the reported value of log10 EC50 for this record: CC(=O)N[C@@H](CCCNC(=N)N)C(=O)N[C@H]1CSSC[C@@H](C(N)=O)NC(=O)[C@H](Cc2c[nH]c3ccccc23)NC(=O)[C@H](CCCNC(=N)N)NC(=O)[C@@H](Cc2ccccc2)NC(=O)[C@H](Cc2ccc(O)cc2)NC(=O)[C@@H](C)NC1=O [Compound 11] (Ac-RC[dA]Y[dF]RWC-NH2; disulfide 2-8) -0.52

Give the reported value of log10 EC50 for this record: CC(=O)N[C@@H](CCCNC(=N)N)C(=O)N[C@H]1CSSC[C@@H](C(N)=O)NC(=O)[C@H](Cc2c[nH]c3ccccc23)NC(=O)[C@H](CCCNC(=N)N)NC(=O)[C@@H](Cc2ccc(F)cc2)NC(=O)[C@@H]2CCCN2C(=O)[C@@H](C)NC1=O [Compound 14] (Ac-RC[dA]P[dPhe(4-F)]RWC-NH2; disulfide 2-8) -0.77

Give the reported value of log10 EC50 for this record: CC(=O)N[C@@H](CCCNC(=N)N)C(=O)N[C@H]1CCSSC(C)(C)[C@@H](C(N)=O)NC(=O)[C@H](Cc2c[nH]c3ccccc23)NC(=O)[C@H](CCCNC(=N)N)NC(=O)[C@@H](Cc2ccccc2)NC(=O)[C@@H](C)NC1=O [Compound 17] (Ac-R[hCys][dA][dF]RW[Pen]-NH2; disulfide 2-7) -0.71

Give the reported value of log10 EC50 for this record: CC(=O)N[C@@H](CCCNC(=N)N)C(=O)N[C@H]1CSSC[C@@H](C(N)=O)NC(=O)[C@H](Cc2c[nH]c3ccccc23)NC(=O)[C@H](CCCNC(=N)N)NC(=O)[C@@H](Cc2ccccc2)NC(=O)[C@H](CCCNC(=N)N)NC(=O)[C@@H](C)NC1=O [Compound 10] (Ac-RC[dA]R[dF]RWC-NH2; disulfide 2-8) -2.21

Give the reported value of log10 EC50 for this record: "CC(=O)N[C@@H](CCCNC(=N)N)C(=O)N[C@H]1CSSC[C@@H](C(N)=O)NC(=O)[C@H](Cc2c[nH]c3ccccc23)NC(=O)[C@H](CCCNC(=N)N)NC(=O)[C@@H](Cc2ccccc2)NC(=O)[C@H](Cc2c[nH]cn2)NC(=O)[C@@H](C(C)C)NC1=O" -2.90

Give the reported value of log10 EC50 for this record: CC(=O)N[C@@H](CCCNC(=N)N)C(=O)N[C@H]1CSSC[C@@H](C(N)=O)NC(=O)[C@H](Cc2c[nH]c3ccccc23)NC(=O)[C@H](CCCNC(=N)N)NC(=O)[C@@H](Cc2ccccc2)NC(=O)[C@H](Cc2c[nH]c3ccccc23)NC(=O)[C@@H](C)NC1=O [Compound 7] (Ac-RC[dA]W[dF]RWC-NH2; disulfide 2-8) -0.56

---

EXPERIMENTAL TARGET: MC5R (Homo sapiens, UniProt P33032)
Sequence (P33032 whole entry): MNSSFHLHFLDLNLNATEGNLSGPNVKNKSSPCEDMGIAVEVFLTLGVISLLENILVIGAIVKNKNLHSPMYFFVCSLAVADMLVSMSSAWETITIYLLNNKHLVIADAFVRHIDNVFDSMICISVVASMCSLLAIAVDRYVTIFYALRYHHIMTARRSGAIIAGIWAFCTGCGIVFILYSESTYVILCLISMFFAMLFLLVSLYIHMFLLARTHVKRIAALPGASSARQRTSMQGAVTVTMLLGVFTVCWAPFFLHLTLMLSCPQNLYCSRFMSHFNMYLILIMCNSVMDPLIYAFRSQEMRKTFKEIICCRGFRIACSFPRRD
METHOD: cAMP assay (β-galactosidase reporter, cAMP Hunter), MC5R
Type: cell-based
CONDITION DETAILS: agonist cAMP stimulation; read-out: cAMP Assay (EC-50) MC5R
Bridge positions count the residues as written; N and C are the ends. Square brackets hold non-standard residues; d marks the D form. Peptide text beside a SMILES is read from it. dPhe(4-F) = N[C@H](Cc1ccc(F)cc1)C(=O)O; Pen = CC(C)(S)[C@H](N)C(=O)O; hCys = N[C@@H](CCS)C(=O)O
Decision: EC50 beneath 0.4 µM gives Y; EC50 meeting or exceeding 0.4 µM gives N.

EC50 strictly < 0.4 µM for this compound? CC(=O)N[C@@H](CCCNC(=N)N)C(=O)N[C@H]1CSSC[C@@H](C(N)=O)NC(=O)[C@H](Cc2c[nH]c3ccccc23)NC(=O)[C@H](CCCNC(=N)N)NC(=O)[C@@H](Cc2ccccc2)NC(=O)[C@H](CCC(N)=O)NC(=O)[C@@H](C)NC1=O [Compound 8] (Ac-RC[dA]Q[dF]RWC-NH2; disulfide 2-8) Y

EC50 strictly < 0.4 µM for this compound? CC(=O)N[C@@H](CCCNC(=N)N)C(=O)N[C@H]1CCSSC(C)(C)[C@@H](C(N)=O)NC(=O)[C@H](Cc2c[nH]c3ccccc23)NC(=O)[C@H](CCCNC(=N)N)NC(=O)[C@@H](Cc2ccccc2)NC(=O)[C@@H](C)NC1=O [Compound 17] (Ac-R[hCys][dA][dF]RW[Pen]-NH2; disulfide 2-7) N

EC50 strictly < 0.4 µM for this compound? CC(=O)N[C@@H](CCCNC(=N)N)C(=O)N[C@H]1CSSC[C@@H](C(N)=O)NC(=O)[C@H](Cc2c[nH]c3ccccc23)NC(=O)[C@H](CCCNC(=N)N)NC(=O)[C@@H](Cc2ccc(F)cc2)NC(=O)[C@@H]2CCCN2C(=O)[C@@H](C)NC1=O [Compound 14] (Ac-RC[dA]P[dPhe(4-F)]RWC-NH2; disulfide 2-8) Y

EC50 strictly < 0.4 µM for this compound? "CC(=O)N[C@@H](CCCNC(=N)N)C(=O)N[C@H]1CSSC[C@@H](C(N)=O)NC(=O)[C@H](Cc2c[nH]c3ccccc23)NC(=O)[C@H](CCCNC(=N)N)NC(=O)[C@@H](Cc2ccccc2)NC(=O)[C@H](Cc2c[nH]cn2)NC(=O)[C@@H](C(C)C)NC1=O" N

EC50 strictly < 0.4 µM for this compound? "CC[C@@H](C)[C@H]1NC(=O)[C@@H](NC(=O)[C@H](CCCNC(=N)N)NC(C)=O)CSSC[C@@H](C(N)=O)NC(=O)[C@H](Cc2c[nH]c3ccccc23)NC(=O)[C@H](CCCNC(=N)N)NC(=O)[C@@H](Cc2ccccc2)NC(=O)[C@H](Cc2c[nH]cn2)NC1=O" N

EC50 strictly < 0.4 µM for this compound? "CC(=O)N[C@@H](CCCNC(=N)N)C(=O)N[C@H]1CSSC[C@@H](C(N)=O)NC(=O)[C@H](Cc2c[nH]c3ccccc23)NC(=O)[C@H](CCCNC(=N)N)NC(=O)[C@@H](Cc2ccccc2)NC(=O)[C@H](Cc2c[nH]cn2)NC(=O)[C@@H](CC(C)C)NC1=O" Y

EC50 strictly < 0.4 µM for this compound? CC(=O)N[C@@H](CCCNC(=N)N)C(=O)N[C@H]1CCSSC[C@@H](C(N)=O)NC(=O)[C@H](Cc2c[nH]c3ccccc23)NC(=O)[C@H](CCCNC(=N)N)NC(=O)[C@@H](Cc2ccccc2)NC(=O)[C@@H](C)NC1=O [Compound 16] (Ac-R[hCys][dA][dF]RWC-NH2; disulfide 2-7) N
